Property: glycan array binding signal (z-score); scope: individual binders
- tgt: Neu5Ac(a2-3)[GalNAc(b1-4)]Gal(b1-4)GlcNAc
- test method notes: glycan array binding signal (z-score within array); higher = stronger binding
- study conditions: glycan notation: IUPAC condensed, linker removed
The sample as a whole holds a higher share of the strongest signals than the screen did.
Respond with the number and no other words.

These solved cases illustrate the format of a correct answer.
PpFlo3 (Pichia pastoris) (protein) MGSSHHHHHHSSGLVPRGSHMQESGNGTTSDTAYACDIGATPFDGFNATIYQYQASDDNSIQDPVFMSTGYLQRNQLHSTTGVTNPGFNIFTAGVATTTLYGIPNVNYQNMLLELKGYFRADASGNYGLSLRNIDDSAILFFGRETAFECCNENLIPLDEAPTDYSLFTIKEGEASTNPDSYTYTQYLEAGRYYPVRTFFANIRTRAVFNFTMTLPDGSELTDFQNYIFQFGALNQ    -0.272
CTLX (Homo sapiens), Q6UXS0 (protein) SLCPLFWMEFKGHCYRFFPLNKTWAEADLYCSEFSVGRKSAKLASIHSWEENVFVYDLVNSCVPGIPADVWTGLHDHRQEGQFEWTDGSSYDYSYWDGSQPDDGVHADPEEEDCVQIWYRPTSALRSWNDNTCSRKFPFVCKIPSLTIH    -0.041

Asked: // query glycan array binding signal (z-score) value for entry HFR-1 (Triticum aestivum) (protein) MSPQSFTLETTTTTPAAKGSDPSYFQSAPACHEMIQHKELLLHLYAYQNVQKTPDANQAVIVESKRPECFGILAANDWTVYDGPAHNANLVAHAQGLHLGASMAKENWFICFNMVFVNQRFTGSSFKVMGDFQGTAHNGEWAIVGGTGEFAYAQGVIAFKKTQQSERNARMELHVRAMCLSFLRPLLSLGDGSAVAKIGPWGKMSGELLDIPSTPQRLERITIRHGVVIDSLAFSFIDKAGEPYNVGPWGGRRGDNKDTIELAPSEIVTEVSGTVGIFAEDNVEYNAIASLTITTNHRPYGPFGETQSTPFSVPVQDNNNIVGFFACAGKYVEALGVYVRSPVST
Given back: -0.165
